Give 8OG:A repair function score for every item shown.
B1: library; numbered along this chain (parent)
chain: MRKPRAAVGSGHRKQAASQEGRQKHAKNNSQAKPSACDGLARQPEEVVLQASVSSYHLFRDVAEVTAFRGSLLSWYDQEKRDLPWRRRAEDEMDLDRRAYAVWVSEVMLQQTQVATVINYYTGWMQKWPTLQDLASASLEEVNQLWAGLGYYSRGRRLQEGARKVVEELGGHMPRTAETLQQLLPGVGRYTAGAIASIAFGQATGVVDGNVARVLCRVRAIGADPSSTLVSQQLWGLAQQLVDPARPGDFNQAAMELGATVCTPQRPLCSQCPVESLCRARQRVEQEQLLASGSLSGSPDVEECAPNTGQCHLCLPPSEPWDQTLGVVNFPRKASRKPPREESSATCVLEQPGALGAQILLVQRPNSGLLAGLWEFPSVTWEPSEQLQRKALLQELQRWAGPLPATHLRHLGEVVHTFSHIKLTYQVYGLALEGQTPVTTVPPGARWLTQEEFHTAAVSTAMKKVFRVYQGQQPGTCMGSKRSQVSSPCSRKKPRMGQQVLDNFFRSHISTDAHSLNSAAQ

- Variants of: B1
- experiment: 8OG:A repair function score (normalized; synonymous = 0, nonsense = -1) (normalized log-likelihood score); higher = more repair activity (WT-like);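 note: cells sorted at 72 h after reporter transfection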
- conditions used: with 8OG:A DNA repair reporter (GFP) in HEK-293 MUTYH KO cells
One number for each entry.

Reference set (3 entries):
- mutation code: "G222P"
  obs value: -0.731
- mutation code: "G186A"
  obs value: -0.672
- mutation code: "V47N"
  obs value: 0.0108

Items follow; give 8OG:A repair function score for each.
1. S226Y
2. L180W
3. D208V
4. P352V
5. C269G
6. D91S

1. -0.198
2. -0.713
3. -0.996
4. -0.096
5. -1.26
6. -0.00182

# return 8OG:A repair function score for each item in the list
1. R398I
2. F418A
3. G471S
4. D77L
5. Q265V
6. D82W
7. V142G

-0.416
-0.333
0.0169
-0.131
-0.0775
-0.00177
-0.5
